B1: NECAB1 (parent)
chain: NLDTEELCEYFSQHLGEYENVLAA

Variants of: B1
assay-details: protein stability index of a GFP-peptide fusion (GPS, HEK-293T) (PSI 1-6); higher = more stable;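 note: lentivirally expressed fusions sorted by FACS into six bins by GFP to DsRed ratio, PSI derived from sequencing read proportions per bin multiplied by bin number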
test-parameters: c terminus: a fixed tail appended
Quick reference: protein stability index of the listed items.
Give the figure by itself; no unit, no explanation.

variant-id: L2V
protein stability index: 1.79

variant-id: T4Y
protein stability index: 2.97

variant-id: S12A
protein stability index: 2.59

For the next question, use this variant.
Input: Identify protein stability index associated with the variant `V21G`
Output: 4.32
